Reference for the values: ChEMBL document CHEMBL5331124

# assayed.system: Hexokinase-2 (Mus musculus)
# protocol: Induction of HK2 degradation in mouse 4T1 cells at 20 uM measured for 36 hrs by Western blot analysis relative to control
# Type: cell-based
measured.endpoint: Activity (%)
Field format: number, assumed %, no unit text.

The cases that follow already have their Activity on record.
# compound, Activity / %
rows = [
    ("O=C1CCC(N2C(=O)c3cccc(OCC(=O)N4CCN(C(=O)c5nn(Cc6ccc(Cl)cc6Cl)c6ccccc56)CC4)c3C2=O)C(=O)N1 (centres undefined)", 15.4),
    ("O=C(COc1cccc2c1C(=O)N(C1CCC(=O)NC1=O)C2=O)NCCCCNC(=O)c1nn(Cc2ccc(Cl)cc2Cl)c2ccccc12 (centres undefined)", 11.6),
]

-- ask Which measured Activity value corresponds to O=C1CCC(N2C(=O)c3cccc(NCCCCCOC(=O)c4nn(Cc5ccc(Cl)cc5Cl)c5ccccc45)c3C2=O)C(=O)N1 (centres undefined) ?
-- reply 5.93

-- ask Check O=C1CCC(N2C(=O)c3cccc(NCCCCCCOC(=O)c4nn(Cc5ccc(Cl)cc5Cl)c5ccccc45)c3C2=O)C(=O)N1 (centres undefined) too.
-- reply 52.3

====

# Test system: 786-0
# protocol: Antiproliferative activity against human 786-0 cells assessed as cell growth inhibition measured for 72 hrs by MTT assay
# Type: functional, cell-based
# applied.conditions: 786-0, 72 h
measured.endpoint: pIC50
Notebook: values listed as pIC50 are -log10 of the concentration (mol/L).

-- ask Which pIC50 value is on record for O=C1CCC(N2C(=O)c3cccc(NCCOCCOCCOC(=O)c4nn(Cc5ccc(Cl)cc5Cl)c5ccccc45)c3C2=O)C(=O)N1 (centres undefined) ?
-- reply 4.57

-- ask Query O=C1CCC(N2C(=O)c3cccc(NCCCNC(=O)c4nn(Cc5ccc(Cl)cc5Cl)c5ccccc45)c3C2=O)C(=O)N1 (centres undefined) next
-- reply 4.91

-- ask Next compound up: O=C1CCC(N2C(=O)c3cccc(OCCNC(=O)c4nn(Cc5ccc(Cl)cc5Cl)c5ccccc45)c3C2=O)C(=O)N1 (centres undefined)
-- reply 4.52

-- ask Please do the same for O=C(COc1cccc2c1C(=O)N(C1CCC(=O)NC1=O)C2=O)NCCCCCCCCNC(=O)c1nn(Cc2ccc(Cl)cc2Cl)c2ccccc12 (centres undefined) as well.
-- reply 4.45

====

# Test system: 786-0
# protocol: Antiproliferative activity against human 786-0 cells assessed as cell growth inhibition measured for 72 hrs by MTT assay
# Format: functional, cell-based
# applied.conditions: 786-0, 72 h
Recorded pIC50 by entry
Formally, pIC50 is defined as -log10 of the concentration c, with c in mol/L.

Consider the worked cases shown below.
# compound, pIC50
records = [
    ("O=C1CCC(N2C(=O)c3cccc(NCCCCCOC(=O)c4nn(Cc5ccc(Cl)cc5Cl)c5ccccc45)c3C2=O)C(=O)N1 (configuration not stated)", 4.51),
    ("O=C1CCC(N2C(=O)c3cccc(NCCOCCOC(=O)c4nn(Cc5ccc(Cl)cc5Cl)c5ccccc45)c3C2=O)C(=O)N1 (configuration not stated)", 4.62),
    ("O=C1CCC(N2C(=O)c3cccc(OCC(=O)N4CCN(C(=O)c5nn(Cc6ccc(Cl)cc6Cl)c6ccccc56)CC4)c3C2=O)C(=O)N1 (configuration not stated)", 4.39),
    ("O=C(COc1cccc2c1C(=O)N(C1CCC(=O)NC1=O)C2=O)NCCCNC(=O)c1nn(Cc2ccc(Cl)cc2Cl)c2ccccc12 (configuration not stated)", 4.36),
    ("O=C(COc1cccc2c1C(=O)N(C1CCC(=O)NC1=O)C2=O)NCCOCCOCCNC(=O)c1nn(Cc2ccc(Cl)cc2Cl)c2ccccc12 (configuration not stated)", 4.36),
    ("CC(CCOC(=O)c1nn(Cc2ccc(Cl)cc2Cl)c2ccccc12)Nc1cccc2c1C(=O)N(C1CCC(=O)NC1=O)C2=O (configuration not stated)", 4.57),
]

Kindly review the next compound as well.
-- ask If you can, please state the reported pIC50 value of O=C1CCC(N2C(=O)c3cccc(NCCOCCOCCNC(=O)c4nn(Cc5ccc(Cl)cc5Cl)c5ccccc45)c3C2=O)C(=O)N1 (configuration not stated) .
-- reply 4.52
